assay: Primary redox qHTS assay for identification of artifact compounds. (AID 1845223); details: Amplex Red/HRP redox cycling with DTT, fluorescence; series mostly up to 53.8 µM
Inconclusive results are not listed. Calls of active or inactive are those of the source. Calls follow the shape of the dose curve; as a rule, active = well fitted activation curve with a large enough effect; inconclusive = small, poorly fitted or top-dose-only effect; inactive = flat fitted curve, though single readings scatter.
endpoint-label: outcome

compound	outcome
CS(=O)(=O)N1CCN(Cc2cc3nc(-c4cccc5[nH]ncc45)nc(N4CCOCC4)c3s2)CC1	inactive
Cc1cn2c(-c3cn[nH]c3)cnc2c(Nc2ccc(C(=O)N3CCNCC3)cc2F)n1	inactive
COC(=O)Nc1nc2ccc(C(=O)c3ccc(F)cc3)cc2[nH]1	inactive
CC1(O)CC(c2nc(-c3ccc4ccc(-c5ccccc5)nc4c3)c3c(N)nccn23)C1 (stereo not given)	inactive

Inquiry: outcome lookup needed for CN(C1CCc2c(c3ccccc3n2CC(=O)O)C1)S(=O)(=O)c1ccc(F)cc1 (stereo not given) , thanks.
Reply text: inactive
